- ASSAY TEXT: Phase I 14-day twice-daily pharmacokinetics
- EXPERIMENTAL PARAMETERS: human, plasma, oral, 40 mg
MEASURE: half-life
Don't forget the unit after the value.

Output half-life of "O=S1(=O)c2ccc(F)cc2Oc2cc(OCC(F)(F)F)ccc21"
2120 min

----------
- TESTED SYSTEM: Oxidase MAO-A Peripheral (Rattus norvegicus, UniProt P21396)
- Construct: purchased NovaScreen
- Sequence (P21396 whole entry): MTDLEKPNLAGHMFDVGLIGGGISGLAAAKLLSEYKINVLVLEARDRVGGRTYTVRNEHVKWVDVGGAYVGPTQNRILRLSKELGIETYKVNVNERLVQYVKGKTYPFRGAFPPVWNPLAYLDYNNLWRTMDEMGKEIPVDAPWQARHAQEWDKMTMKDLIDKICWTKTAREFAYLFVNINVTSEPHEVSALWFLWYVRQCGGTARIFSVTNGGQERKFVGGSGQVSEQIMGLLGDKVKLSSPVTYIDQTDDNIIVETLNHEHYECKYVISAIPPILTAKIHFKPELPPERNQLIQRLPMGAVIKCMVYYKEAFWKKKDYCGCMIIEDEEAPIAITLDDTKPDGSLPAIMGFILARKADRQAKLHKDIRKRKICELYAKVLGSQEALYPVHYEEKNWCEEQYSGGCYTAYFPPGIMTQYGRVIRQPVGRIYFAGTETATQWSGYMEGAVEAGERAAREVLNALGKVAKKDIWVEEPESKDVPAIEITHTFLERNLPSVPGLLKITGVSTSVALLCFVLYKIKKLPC
- ASSAY TEXT: NovaScreen ligand-binding screen, MAO-A
- EXPERIMENTAL PARAMETERS: read-out: Kd, competition for [14C]-serotonin (5-HT) binding
MEASURE: pKd
By convention, pKd is the negative base-10 log of a molar concentration.

Output pKd of "O=S1(=O)c2ccc(F)cc2Oc2cc(OCC(F)(F)F)ccc21"
8.06

----------
- ASSAY TEXT: Phase 1 single dose escalation pharmacokinetics
- EXPERIMENTAL PARAMETERS: male, human, plasma, po, 10 mg
MEASURE: CL/F (mL/min/kg)
Lab book: enter the figure in mL/min/kg, no units written.

Output CL/F of "O=S1(=O)c2ccc(F)cc2Oc2cc(OCC(F)(F)F)ccc21"
19.7

----------
- ASSAY TEXT: Phase I 14-day twice-daily pharmacokinetics
- EXPERIMENTAL PARAMETERS: human, plasma, oral, 40 mg, Tmax, healthy volunteers, 40 mg twice daily, Day 1, median
- Protocol: Methods: The study was a Phase I, single-center, randomized, parallel-group, multiple-dose, placebo-controlled, pharmacodynamic, pharmacokinetic and safety study in healthy volunteers. To obtain 24 enrolled subjects, screening procedures and inclusion/exclusion criteria were evaluated for 54 subjects during a variable screening period of up to 28 days. Once enrolled, subjects were randomized to either CX157 10 mg, 20 mg or 40 mg or matching placebo administered twice daily for 14 consecutive days. […]
MEASURE: Tmax (h)
Lab book: enter the figure in h, no units written.

Output Tmax of O=S1(=O)c2ccc(F)cc2Oc2cc(OCC(F)(F)F)ccc21 [CX157]
1.08

----------
- ASSAY TEXT: Fed versus fasted pharmacokinetics of modified release tablet
- Format: in vivo
- EXPERIMENTAL PARAMETERS: human, plasma, oral, 175 mg; fed and fasted; read-out: half-life, mean, range over treatments
MEASURE: half-life

Output half-life of O=S1(=O)c2ccc(F)cc2Oc2cc(OCC(F)(F)F)ccc21 [CX157]
20.6 to 23.5 h

----------
- ASSAY TEXT: Plasma and brain CX157 concentrations after oral dosing in rats
- EXPERIMENTAL PARAMETERS: male, Sprague-Dawley, rat, plasma, po, 10 mg/kg
MEASURE: concentration at 0 h (ng/mL)
Lab book: enter the figure in ng/mL, no units written.

Output concentration at 0 h of "O=S1(=O)c2ccc(F)cc2Oc2cc(OCC(F)(F)F)ccc21"
0

----------
- ASSAY TEXT: Phase 1 single dose escalation pharmacokinetics
- EXPERIMENTAL PARAMETERS: male, human, plasma, po, 20 mg
MEASURE: AUC(0-inf) (ng·h/mL)
Lab book: enter the figure in ng·h/mL, no units written.

Output AUC(0-inf) of O=S1(=O)c2ccc(F)cc2Oc2cc(OCC(F)(F)F)ccc21 [CX157]
154

----------
- ASSAY TEXT: Phase I 14-day twice-daily pharmacokinetics
- EXPERIMENTAL PARAMETERS: human, plasma, oral, 20 mg, AUC0-12h, healthy volunteers, 20 mg twice daily, Day 1, mean
MEASURE: AUC(0-t) (ng·h/mL)
Lab book: enter the figure in ng·h/mL, no units written.

Output AUC(0-t) of O=S1(=O)c2ccc(F)cc2Oc2cc(OCC(F)(F)F)ccc21 [CX157]
83.5

----------
- ASSAY TEXT: Phase 1 single dose escalation pharmacokinetics
- EXPERIMENTAL PARAMETERS: male, human, plasma, po, 80 mg, AUC0-48, healthy males, single oral 80 mg, mean
MEASURE: AUC(0-t) (ng·h/mL)
Lab book: enter the figure in ng·h/mL, no units written.

Output AUC(0-t) of O=S1(=O)c2ccc(F)cc2Oc2cc(OCC(F)(F)F)ccc21 [CX157]
730

----------
- ASSAY TEXT: Phase I modified release tablets BID pharmacokinetics
- Format: in vivo, human
- EXPERIMENTAL PARAMETERS: human, plasma, oral, 125 mg, MR tablets 125 mg BID, Day 7, mean; read-out: Cmin
MEASURE: concentration at 7 day (ng/mL)
Lab book: enter the figure in ng/mL, no units written.

Output concentration at 7 day of O=S1(=O)c2ccc(F)cc2Oc2cc(OCC(F)(F)F)ccc21 [CX157]
54.9

----------
- ASSAY TEXT: Phase I modified release tablets BID pharmacokinetics
- Format: in vivo, human
- EXPERIMENTAL PARAMETERS: human, plasma, oral, 125 mg, 12-hour AUC, 125 mg BID, Day 1
MEASURE: AUC (ng·h/mL)
Lab book: enter the figure in ng·h/mL, no units written.

Output AUC of O=S1(=O)c2ccc(F)cc2Oc2cc(OCC(F)(F)F)ccc21 [CX157]
702

----------
- ASSAY TEXT: Phase 1 single dose escalation pharmacokinetics
- EXPERIMENTAL PARAMETERS: male, human, plasma, po, 15 mg
MEASURE: AUC(0-inf) (ng·h/mL)
Lab book: enter the figure in ng·h/mL, no units written.

Output AUC(0-inf) of "O=S1(=O)c2ccc(F)cc2Oc2cc(OCC(F)(F)F)ccc21"
129

----------
- ASSAY TEXT: Phase I 14-day twice-daily pharmacokinetics
- EXPERIMENTAL PARAMETERS: human, plasma, oral, 40 mg, Cmax, healthy volunteers, 40 mg twice daily, Day 1, mean
MEASURE: Cmax (ng/mL)
Lab book: enter the figure in ng/mL, no units written.

Output Cmax of "O=S1(=O)c2ccc(F)cc2Oc2cc(OCC(F)(F)F)ccc21"
69.5

----------
- ASSAY TEXT: Phase I 14-day twice-daily pharmacokinetics
- EXPERIMENTAL PARAMETERS: human, plasma, oral, 10 mg, AUClast, healthy volunteers, 10 mg twice daily, Day 14, mean
MEASURE: AUC(0-t)
Don't forget the unit after the value.

Output AUC(0-t) of "O=S1(=O)c2ccc(F)cc2Oc2cc(OCC(F)(F)F)ccc21"
180 ng·h/mL

----------
- ASSAY TEXT: Phase I 14-day twice-daily pharmacokinetics
- EXPERIMENTAL PARAMETERS: human, plasma, oral, 20 mg, CSS, healthy volunteers, 20 mg twice daily, Day 14, mean
MEASURE: concentration at 14 day (ng/mL)
Lab book: enter the figure in ng/mL, no units written.

Output concentration at 14 day of "O=S1(=O)c2ccc(F)cc2Oc2cc(OCC(F)(F)F)ccc21"
9.6

----------
- ASSAY TEXT: Phase 1 single dose escalation pharmacokinetics
- EXPERIMENTAL PARAMETERS: male, human, plasma, po, 40 mg
MEASURE: concentration at 24 h (ng/mL)
Lab book: enter the figure in ng/mL, no units written.

Output concentration at 24 h of O=S1(=O)c2ccc(F)cc2Oc2cc(OCC(F)(F)F)ccc21 [CX157]
1.4

----------
- ASSAY TEXT: Plasma and brain CX157 concentrations after oral dosing in rats
- EXPERIMENTAL PARAMETERS: male, Sprague-Dawley, rat, brain/plasma, po, 1 mg/kg, mean brain/plasma ratio of CX157 concentrations, 1 mg/kg oral, 8 h
MEASURE: Kp at 8 h
Write the number on its own, no unit after it.

Output Kp at 8 h of "O=S1(=O)c2ccc(F)cc2Oc2cc(OCC(F)(F)F)ccc21"
6.5

----------
- ASSAY TEXT: Phase 1 single dose escalation pharmacokinetics
- EXPERIMENTAL PARAMETERS: male, human, plasma, po, 20 mg, AUC0-48, healthy males, single oral 20 mg, mean
MEASURE: AUC(0-t) (ng·h/mL)
Lab book: enter the figure in ng·h/mL, no units written.

Output AUC(0-t) of O=S1(=O)c2ccc(F)cc2Oc2cc(OCC(F)(F)F)ccc21 [CX157]
149

----------
- ASSAY TEXT: Phase 1 single dose escalation pharmacokinetics
- EXPERIMENTAL PARAMETERS: male, human, plasma, po, 80 mg
- Method: Methods: The trial was a Phase 1, single center, double-blind, placebo-controlled, sequential group, acute dose escalation study of the safety and pharmacokinetics of seven (7) CX157 dose levels in healthy male volunteers. […] Safety and tolerability was assessed for each dose group by the Principal Investigator before advancing to the next scheduled dose group. […]
MEASURE: Vd/F
Don't forget the unit after the value.

Output Vd/F of "O=S1(=O)c2ccc(F)cc2Oc2cc(OCC(F)(F)F)ccc21"
33.5 L/kg

----------
- ASSAY TEXT: Plasma and brain CX157 concentrations after oral dosing in rats
- EXPERIMENTAL PARAMETERS: male, Sprague-Dawley, rat, brain and plasma, po, 10 mg/kg, mean brain/plasma ratio of CX157 concentrations, 10 mg/kg oral, 24 h
MEASURE: Kp at 24 h
Write the number on its own, no unit after it.

Output Kp at 24 h of "O=S1(=O)c2ccc(F)cc2Oc2cc(OCC(F)(F)F)ccc21"
8.5
